# target_or_system: ICAM-1 binding to immobilized Mac-1 (Homo sapiens, UniProt P05107+P11215)
# Construct: made in house; host or cells: transfected 293 cells (Mac-1)
# Sequence (P05107 23-769, other chains not shown): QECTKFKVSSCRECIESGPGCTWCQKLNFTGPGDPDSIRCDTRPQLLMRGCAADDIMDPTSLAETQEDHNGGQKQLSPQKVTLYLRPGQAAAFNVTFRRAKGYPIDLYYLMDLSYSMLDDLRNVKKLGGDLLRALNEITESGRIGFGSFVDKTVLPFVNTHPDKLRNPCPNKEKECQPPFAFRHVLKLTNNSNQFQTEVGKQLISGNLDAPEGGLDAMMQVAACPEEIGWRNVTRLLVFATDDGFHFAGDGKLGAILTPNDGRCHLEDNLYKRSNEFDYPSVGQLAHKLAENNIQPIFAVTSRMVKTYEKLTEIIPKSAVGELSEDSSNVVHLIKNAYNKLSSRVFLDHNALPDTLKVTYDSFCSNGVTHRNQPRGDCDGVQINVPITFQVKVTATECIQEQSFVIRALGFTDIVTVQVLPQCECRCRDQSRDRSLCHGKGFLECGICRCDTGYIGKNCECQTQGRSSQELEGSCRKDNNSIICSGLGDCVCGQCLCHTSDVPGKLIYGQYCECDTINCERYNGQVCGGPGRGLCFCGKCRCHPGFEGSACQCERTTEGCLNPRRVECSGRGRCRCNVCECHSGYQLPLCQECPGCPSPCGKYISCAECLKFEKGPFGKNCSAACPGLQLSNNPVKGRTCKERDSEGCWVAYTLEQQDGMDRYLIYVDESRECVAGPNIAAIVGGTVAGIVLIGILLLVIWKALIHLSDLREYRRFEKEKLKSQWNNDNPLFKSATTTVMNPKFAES
# method_summary: Mac-1/ICAM-1 screening assay (solid-phase ELISA)
# settings: read-out: Mac-1/ICAM-1 Protein-Protein Assay IC50
measured_attribute: IC50 (µM)

Sample answers from the record:
1. O=C(NCc1cccc(O)c1)c1ccc(C(=O)N[C@@H](CNC(=O)C2CCCC2)C(=O)O)c(Cl)c1: 0.029
2. O=C(NCc1cccc(O)c1)c1ccc(C(=O)N[C@@H](CNC(=O)C2CCCCC2)C(=O)O)c(Cl)c1: 0.025
3. O=C(NC[C@H](NC(=O)c1c(Cl)cccc1Cl)C(=O)O)c1ccccc1: 0.319
4. O=C(NCc1ccc(C(=O)N[C@@H](CNC(=O)c2ccccc2)C(=O)O)c(Cl)c1)c1ccc2cc[nH]c2c1: 0.403
5. O=C(NCc1cccc(O)c1)c1ccc(C(=O)N[C@@H](CNC(=O)c2ccc([N+](=O)[O-])o2)C(=O)O)c(Cl)c1: 0.035

(1) CC1(C(=O)NC[C@H](NC(=O)c2ccc(C(=O)NCc3cccc(O)c3)cc2Cl)C(=O)O)CCCCC1
(2) Cc1cccc(C(=O)NC[C@H](NC(=O)c2ccc(C(=O)NCc3cccc(O)c3)cc2Cl)C(=O)O)c1
# query: argmin of IC50 over 1 and 2 # reply format: chosen label
2
(2: 0.01 µM, 1: 0.022 µM)

(P) O=C(NC[C@H](NC(=O)c1ccc(/C=C/Cc2ccccc2)cc1Cl)C(=O)O)c1cccs1
(Q) O=C(NCc1cccc(O)c1)c1ccc(C(=O)N[C@@H](CNC(=O)c2ccc3ccccc3n2)C(=O)O)c(Cl)c1
# query: argmin of IC50 over P and Q # reply format: chosen label
P
(P: 0.068 µM, Q: 0.176 µM)
